EXPERIMENT: in vivo
TEST_CONTEXT: female, Wistar, rat, in vivo, po, 500 mg/kg, AUC0–t, parent compound
ENDPOINT: AUC(0-t) (ng·h/mL)
Numbers only, in ng·h/mL.

### Prompt # input molecule: CCCCOC(=O)c1ccc(O)cc1 [Butyl paraben, Butyl 4-hydroxybenzoate] ; wanted: its AUC(0-t)
### Response 336

---

EXPERIMENT: in vivo
TEST_CONTEXT: male, Wistar, rat, serum, oral, 1000 mg/kg
ENDPOINT: concentration at 1 h (ng/mL)
Give bare numbers, in ng/mL.

Record excerpt, results attached:
[
  {
    "MOLECULE": "CCOC(=O)c1ccc(O)cc1 [Ethyl paraben, Ethyl 4-hydroxybenzoate]",
    "ENDPOINT": "concentration at 1 h",
    "VALUE_UNIT": "ng/mL",
    "MEAS_VALUE": 96.6
  },
  {
    "MOLECULE": "COC(=O)c1ccc(O)cc1 [Methyl paraben, Methyl 4-hydroxybenzoate]",
    "ENDPOINT": "concentration at 1 h",
    "VALUE_UNIT": "ng/mL",
    "MEAS_VALUE": 552
  }
]

Attention now shifts to the item below.
### Prompt # input molecule: CCCOC(=O)c1ccc(O)cc1 [Propyl paraben, Propyl 4-hydroxybenzoate] ; wanted: its concentration at 1 h
### Response 62.3
